Source: ChEMBL document CHEMBL4311981

# Tested on: HL-60
# assay-protocol: Cytotoxicity against human HL60 cells assessed as reduction in cell viability incubated for 24 hrs by CellTiter-Glo luminescent cell viability assay
# Assay type: functional, cell-based
# particulars: HL-60, 24 h
pIC50: −log10 of the molar value.
Label scheme for pIC50: lower than 5 is no, 5 and above is yes.

Please review the following examples before continuing.
[
  {
    "compound": "CC1=CC(=O)c2ccccc2C1=O",
    "assay-system": "HL-60",
    "cat": "yes"
  },
  {
    "compound": "O=C1C(SCCO)=C(SCCO)C(=O)c2ccccc21",
    "assay-system": "HL-60",
    "cat": "yes"
  },
  {
    "compound": "CC1=C(SC(C)C)C(=O)c2ccccc2C1=O",
    "assay-system": "HL-60",
    "cat": "yes"
  },
  {
    "compound": "O=C(O)CCSC1=CC(=O)c2ccccc2C1=O",
    "assay-system": "HL-60",
    "cat": "no"
  },
  {
    "compound": "COc1ccc(OC)c2c1C(=O)C=C(SCCC(=O)O)C2=O",
    "assay-system": "HL-60",
    "cat": "no"
  }
]

Could you verify whether the entry `COC1=C(C)C(=O)c2ccccc2C1=O` shows pIC50 of no less than 5? no

Could you verify whether the entry `COC1=CC(=O)c2ccccc2C1=O` shows pIC50 of no less than 5? yes

Could you verify whether the entry `CCSC1=C(C)C(=O)c2ccccc2C1=O` shows pIC50 of no less than 5? yes

Could you verify whether the entry `COC1=C(OC)C(=O)c2ccccc2C1=O` shows pIC50 of no less than 5? yes

Could you verify whether the entry CC(SC1=CC(=O)c2ccccc2C1=O)C(=O)O (stereo unspecified) shows pIC50 of no less than 5? no

Could you verify whether the entry `O=C(O)CSC1=CC(=O)c2ccccc2C1=O` shows pIC50 of no less than 5? no

Could you verify whether the entry `CSC1=C(SC)C(=O)c2ccccc2C1=O` shows pIC50 of no less than 5? yes

Could you verify whether the entry `COCCSC1=C(C)C(=O)c2ccccc2C1=O` shows pIC50 of no less than 5? yes

----------
# assay-system: M-phase inducer phosphatase 2 (Homo sapiens, UniProt P30305)
# Sequence (P30305 whole entry): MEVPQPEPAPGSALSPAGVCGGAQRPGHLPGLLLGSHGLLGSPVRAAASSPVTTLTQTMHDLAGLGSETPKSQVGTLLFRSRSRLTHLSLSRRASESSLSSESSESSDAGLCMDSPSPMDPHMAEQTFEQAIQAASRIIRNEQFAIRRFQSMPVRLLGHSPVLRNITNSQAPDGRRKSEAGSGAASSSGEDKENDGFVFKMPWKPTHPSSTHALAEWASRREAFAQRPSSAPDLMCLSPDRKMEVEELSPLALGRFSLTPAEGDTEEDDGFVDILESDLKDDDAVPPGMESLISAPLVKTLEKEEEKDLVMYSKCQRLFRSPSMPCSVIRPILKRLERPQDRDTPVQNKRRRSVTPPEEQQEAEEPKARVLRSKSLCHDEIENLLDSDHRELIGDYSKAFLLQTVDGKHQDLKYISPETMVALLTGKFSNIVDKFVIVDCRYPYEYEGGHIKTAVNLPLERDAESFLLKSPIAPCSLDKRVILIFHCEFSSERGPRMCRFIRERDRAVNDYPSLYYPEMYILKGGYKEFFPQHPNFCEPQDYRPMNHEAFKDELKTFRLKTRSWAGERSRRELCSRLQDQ
readout-label: log10 IC50 (log10 of the value in µM)
Heads up, the numbers here are log10 of IC50 in µM units.

[
  {
    "compound-smiles": "O=C(O)CSC1=CC(=O)c2ccccc2C1=O",
    "assay-system": "M-phase inducer phosphatase 2 (Homo sapiens, UniProt P30305)",
    "readout-label": "log10 IC50",
    "value-reported": 0.00
  },
  {
    "compound-smiles": "COC(=O)c1ccc(NC2=C(N3CCCCC3)C(=O)c3ccccc3C2=O)cc1",
    "assay-system": "M-phase inducer phosphatase 2 (Homo sapiens, UniProt P30305)",
    "readout-label": "log10 IC50",
    "value-reported": 1.15
  },
  {
    "compound-smiles": "O=C(O)c1ccc(NC2=C(Cl)C(=O)c3ccccc3C2=O)cc1",
    "assay-system": "M-phase inducer phosphatase 2 (Homo sapiens, UniProt P30305)",
    "readout-label": "log10 IC50",
    "value-reported": 0.69
  },
  {
    "compound-smiles": "COC1=CC(=O)c2ccccc2C1=O",
    "assay-system": "M-phase inducer phosphatase 2 (Homo sapiens, UniProt P30305)",
    "readout-label": "log10 IC50",
    "value-reported": 1.67
  },
  {
    "compound-smiles": "CC1=CC(=O)c2ccccc2C1=O",
    "assay-system": "M-phase inducer phosphatase 2 (Homo sapiens, UniProt P30305)",
    "readout-label": "log10 IC50",
    "value-reported": 0.59
  }
]

// next item, log10 IC50 requested
Lab request: please report log10 IC50 under test system M-phase inducer phosphatase 2 (Homo sapiens, UniProt P30305) for `COC1=C(OC)C(=O)c2ccccc2C1=O` 1.24
